# measurement.protocol: soluble fraction after stress (log2 fold change); higher = more stays soluble; pooled small domains, quantitative proteomics
# experimental.parameters: stress: 50 degC
quantity: soluble fraction (log2)
When you answer, write just the number.

HMEQTIKKYVNVATLNFRSGPSTSYSIISTLSKGTKVEVISTTNNWSKIIYDGKIGYVSSEYLSKSI :: -2.1
HMNTLTKEDIQKAIDVIPIDFKSVVILNLVEGFSYKETAEILEIPIGTVMSRLHRGRKILQKLLWEYSSSK :: -1.32
HMRTVLSDETYLRIREMLLTHDIAPGERINIDALARELDVSQTPVREALARLESEDLVTKEPLRGYTATK :: -0.017

Query (sequence): HMKNLSQAEFMYLFKILAFGSTDPDNHPEMAATGMEIAKMLQGLLLSGNVLADILRKNQNVQFWL ; field requested: soluble fraction (log2)
-0.204

Query (sequence): HMGEKFTFGQIAKAKAYAKTYANDMTSAVKNIEAIATGLSKHPEVADTLKKANENQELNRITKLAG ; field requested: soluble fraction (log2)
0.149

Query (sequence): HMIQMRVKVPKNIAGGSLMGAHHFVKSALARTNPGGSTSNYKIQATDGTPLTLGDLTARQYDEVLIISG ; field requested: soluble fraction (log2)
0.0101

Query (sequence): HMSEYEYALHEFGITKKQSQRIFDRLSIADLEERINAIQTTLKQRSDIDNPAAYAWTVLNAE ; field requested: soluble fraction (log2)
-0.207

Query (sequence): HMGRFPSLTPVVIDALTAQYREHPGWTVQLHVDNLRVVLAANQTPLPSYPTIRRYLLAQGMRRQTRP ; field requested: soluble fraction (log2)
-0.426
